Numbers sourced from patent US10124004B2.

Biological target: CDK4/cyclin D3 (Homo sapiens, UniProt P11802)
Construct: purchased Carna Biosciences, Inc. QS S Assist CDK4/Cyclin D3_FP Kit
Sequence (P11802 whole entry): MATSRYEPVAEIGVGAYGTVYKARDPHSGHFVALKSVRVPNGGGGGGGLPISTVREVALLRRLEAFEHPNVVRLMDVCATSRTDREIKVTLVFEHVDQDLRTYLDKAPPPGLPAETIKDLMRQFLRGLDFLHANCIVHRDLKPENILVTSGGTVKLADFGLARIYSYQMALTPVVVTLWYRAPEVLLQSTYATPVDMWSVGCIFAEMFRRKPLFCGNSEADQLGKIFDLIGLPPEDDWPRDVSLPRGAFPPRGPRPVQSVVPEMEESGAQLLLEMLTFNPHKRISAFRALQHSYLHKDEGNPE
Sequence (P30281 whole entry partner): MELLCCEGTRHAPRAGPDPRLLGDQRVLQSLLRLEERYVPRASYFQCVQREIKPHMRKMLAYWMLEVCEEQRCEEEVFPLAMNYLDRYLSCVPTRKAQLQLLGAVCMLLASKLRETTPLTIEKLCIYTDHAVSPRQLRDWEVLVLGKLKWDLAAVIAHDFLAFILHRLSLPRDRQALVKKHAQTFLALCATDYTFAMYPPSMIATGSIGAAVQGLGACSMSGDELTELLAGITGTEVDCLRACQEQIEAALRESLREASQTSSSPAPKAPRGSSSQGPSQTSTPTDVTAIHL
Experiment: Human CDK4/cyclin D3 inhibitory activity (QS S Assist CDK4/Cyclin D3_FP Kit, IMAP fluorescence polarization)
Assay type: biochemical
Conditions: 50% inhibitory concentration against CDK4/cyclin D3, given as class symbol
Protocol: Human CDK4/Cyclin D3 Inhibitory Activity Each compound was analyzed for CDK4/cyclin D3 inhibitory activity with an assay kit (QS S Assist CDK4/Cyclin D3_FP Kit, available from Carna Biosciences, Inc.). […] Specifically, the kinase activity is determined through quantification of a variation in fluorescent polarization caused by binding of a kinase-phosphorylated fluorescent substance to an IMAP-binding reagent. […]
pIC50: −log10 of the molar value.
I'd be grateful if you could share measured pIC50 for these entries.

{"columns": ["compound", "pIC50"],
 "data": [
  ["C[C@@H](O)c1cc2cnc(Nc3ccc(OC[C@@H]4CCCN4)cn3)nc2c(N[C@H]2CCCOC2)n1 [Compound 782]", "> 8.00"]
]}

Consider the following items and state reported pIC50 for each.
1. C[C@@H](O)c1nc(N[C@H]2CCCOC2)c2nc(Nc3ccc(N4CCNCC4=O)cn3)ncc2c1Cl [Compound 751]
2. CCCNc1nc(C(C)=O)cc2cnc(Nc3ccc(CN4CCNCC4)cn3)nc12 [Compound 910]

["> 8.00", "7.00 to 8.00"]

Please give pIC50 for each item listed below.
1. CCCNc1nc(C2(C)COC2)cc2cnc(Nc3ccc(CN4CCNCC4)cn3)nc12 [Compound 1003]
2. COC1CCC(Nc2nc(C(C)O)cc3cnc(Nc4ccc(OC5CCNCC5F)cn4)nc23)CC1 (stereo not drawn) [Compound 646]
3. CC(C)Nc1nc([C@@H](C)O)cc2cnc(Nc3ccc(N4CCN(CC(=O)N5CCCC5)CC4)nn3)nc12 [Compound 966]
4. CC(C)Nc1nc([C@@H](C)O)cc2cnc(Nc3ccc(C(=O)N4CCNC[C@@H]4C)cn3)nc12 [Compound 1166]
5. CCCNc1nc([C@@H](C)O)cc2cnc(Nc3ccc(N4CCNCC4=O)cn3)nc12 [Compound 814]
6. C[C@@H](O)c1cc2cnc(Nc3ccc(CN4CCCC(O)C4)cn3)nc2c(NCC2CCOCC2)n1 (stereo partly drawn) [Compound 1087]

> 8.00
> 8.00
> 8.00
> 8.00
> 8.00
> 8.00

# return pIC50 for each item in the list
1. CO[C@H](C)c1cc2cnc(Nc3ccc(N4CCN(C(=O)OC(C)C)CC4)nn3)nc2c(NC(C)C)n1 [Compound 748]
2. CO[C@H](C)c1cc2cnc(Nc3ccc(N4CCNCC4)nn3)nc2c(NCCCF)n1 [Compound 1226]
3. CC(C)Nc1nc([C@@H](C)O)cc2cnc(Nc3ccc(N4CCN(C(=O)OC(C)C)CC4)nn3)nc12 [Compound 767]
4. CC(C)Nc1nc([C@@H](C)O)cc2cnc(Nc3ccc(N4CCC(N(C)C)C4)nn3)nc12 (stereo partly drawn) [Compound 1219]
5. C[C@@H](O)c1cc2cnc(Nc3ccc(CN4CCN(CCO)CC4)cn3)nc2c(NCCCF)n1 [Compound 1074]
6. CC(C)Nc1nc([C@@H](C)O)cc2cnc(Nc3ccc(N4CCNC(C(C)C)C4=O)cn3)nc12 (stereo partly drawn) [Compound 732]

1. 7.00 to 8.00
2. > 8.00
3. > 8.00
4. > 8.00
5. > 8.00
6. > 8.00

Please go through the list and note pIC50 for each compound.
1. CC(C)Nc1nc([C@@H](C)O)cc2cnc(Nc3ccc(CN4CCC[C@@H](O)C4)cn3)nc12 [Compound 1196]
2. CC(C)Nc1nc([C@@H](C)O)cc2cnc(Nc3ccc(CN4CCN(C(=O)CO)CC4)cn3)nc12 [Compound 987]
3. CC(C)Nc1nc([C@@H](C)O)cc2cnc(Nc3ccc(N4C(=O)CNCC4C)cn3)nc12 (stereo partly drawn) [Compound 1033]
4. CC(C)Nc1nc([C@@H](C)O)cc2cnc(Nc3ccc(CN4CCCCC4)cn3)nc12 [Compound 1038]

["> 8.00", "> 8.00", "> 8.00", "> 8.00"]

Please go through the list and note pIC50 for each compound.
1. CC(C)Nc1nc([C@@H](C)O)cc2cnc(Nc3ccc(N4CCCC(C(=O)O)C4)cn3)nc12 (stereo partly drawn) [Compound 835]
2. CO[C@H](C)c1cc2cnc(Nc3ccc4c(n3)CCN(C(=O)CO)C4)nc2c(N[C@H]2CCCOC2)n1 [Compound 1113]

1. 7.00 to 8.00
2. 7.00 to 8.00

Can you give me pIC50 for all of these, one by one?
1. CNCCOc1ccc(Nc2ncc3cc(C(C)O)nc(NC4(C)CCCOC4)c3n2)nc1 (single isomer, unassigned) [Compound 870]
2. CC(C)Nc1nc(C2(C)COC2)cc2cnc(Nc3ccc(N4CCNCC4=O)cn3)nc12 [Compound 779]
3. CO[C@H](C)c1cc2cnc(Nc3ccc(OC4CCNCC4)cn3)nc2c(NC2CCOCC2)n1 [Compound 873]
4. CC(C)Nc1nc([C@@H](C)O)cc2cnc(Nc3ccc(N4CCCC(N(C)C)C4)nn3)nc12 (stereo partly drawn) [Compound 1220]
5. CCNc1nc(C2(C)COC2)cc2cnc(Nc3ccc(CN4CCNCC4)cn3)nc12 [Compound 1107]
6. C[C@@H](O)c1cc2cnc(Nc3ccc(CN4CCC(CO)CC4)cn3)nc2c(N[C@H]2CCCOC2)n1 [Compound 1156]

1: > 8.00; 2: > 8.00; 3: > 8.00; 4: > 8.00; 5: > 8.00; 6: > 8.00

// for each compound below, give its pIC50
1. CC(C)Nc1nc([C@@H](C)O)cc2cnc(Nc3ccc(N4CCN(C(C)C#N)CC4=O)cn3)nc12 (stereo partly drawn) [Compound 936]
2. CC(C)Nc1nc([C@@H](C)O)cc2cnc(Nc3ccc(N4CCCC(C(=O)O)C4)nn3)nc12 (stereo partly drawn) [Compound 793]

["> 8.00", "7.00 to 8.00"]

In plain terms, CC(C)Nc1nc(C2CCOC2)cc2cnc(Nc3ccc4c(n3)CCNC4)nc12 (stereo not drawn) [Compound 885] has a documented pIC50 of > 8.00
